Details: in DMF, 293.15 K
Measurement type: solubility (mole fraction)

{"columns": ["Mol smiles", "Measured value"],
 "data": [
  ["O=C(O)c1cccnc1Cl", 0.228]
]}

====

Details: in ethanol, 298.15 K
Measurement type: solubility (mole fraction)

{"columns": ["Mol smiles", "Measured value"],
 "data": [
  ["O=C(O)c1cccnc1Cl", 0.00804]
]}

====

Settings: in water, 313.15 K
Measurement type: solubility (mole fraction)

{"columns": ["Mol smiles", "Measurement type", "Measured value"],
 "data": [
  ["O=C(O)c1cccnc1Cl", "solubility (mole fraction)", 0.000242]
]}
